Test system: VCAP cells
assay_summary: Cell viability assay in VCAP prostate cancer cells
Assay type: cell-based
experimental_setup: Homo sapiens, alvocidib 3.9 nM-1000 nM
endpoint: IC50

{"compound": "CN1CC[C@H](c2c(O)cc(O)c3c(=O)cc(-c4ccccc4Cl)oc23)[C@H](O)C1 [alvocidib]", "experimental_value": "34.5 nM"}
